system: MARIMO; assay: cell viability relative to vehicle control; higher = less cytotoxic; settings: 10 µM; SRSF2 genotype: SRSF2 wt/wt;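 note: after 48 h exposure read by CellTiter-Glo luminescence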
Counter-ions that a name gives are not always drawn.
property-name: cell viability (%)

1. CNC(=O)c1cc(Oc2ccc3nc(N[C@@H]4CCCC[C@H]4O)sc3c2)ccn1 :: 99.1
2. CC(=O)Oc1cc(C)c(OC(C)=O)c2ccccc12 [Menadiol Diacetate] :: 53.5
3. COc1ccc(/C=C/C(=O)Nc2ccccc2C(=O)O)cc1OC :: 102
4. CCOC(=O)C1=C(C)NC(=S)NC1c1cccc(O)c1 (stereo not drawn) [Monastrol] :: 99.4
5. CCN(Cc1ccncc1)C(=O)C(CO)c1ccccc1 (stereo not drawn) [Tropicamide] :: 103
6. CCOc1cc(N)c(Cl)cc1C(=O)NCC1CN(Cc2ccc(F)cc2)CCO1 (stereo not drawn) [Mosapride citrate] :: 89.5
7. COC(=O)c1ccc(O)cc1 [Methyl 4-hydroxybenzoate] :: 94.1
8. COC(=O)c1ccco1 [Methyl furan-2-carboxylate] :: 99.5
